Heads up, these compounds all have pKi values measured for Acetylcholinesterase (Homo sapiens, UniProt P22303).
Give bare numbers, as −log10 of the molar value.

Give measured pKi for every item shown.
1. CC[N+]1(Cc2ccccc2[N+](=O)[O-])CCCCCn2c(C)cc(=O)n(c2=O)CCCCC[N+](CC)(Cc2ccccc2[N+](=O)[O-])Cc2ccc(cc2)C1.[Br-].[Br-] (configuration not stated)
2. CC[N+](CC)(CCCCCn1c(C)cc(=O)n(CCCCC[N+](CC)(CC)Cc2ccccc2[N+](=O)[O-])c1=O)Cc1ccccc1[N+](=O)[O-].[Br-].[Br-]

7.30
10.10

###

IC50 data for Acetylcholinesterase (Homo sapiens, UniProt P22303) follow.
One number for each entry, in nM.

Consider the worked cases shown below.
CC[N+](CC)(CCCCCn1c(C)cc(=O)n(CCCCC[N+](CC)(CC)Cc2ccccc2[N+](=O)[O-])c1=O)Cc1ccccc1[N+](=O)[O-].[Br-].[Br-]    0.14
CC[N+]1(Cc2ccccc2[N+](=O)[O-])CCCCCn2c(C)cc(=O)n(c2=O)CCCCC[N+](CC)(Cc2ccccc2[N+](=O)[O-])Cc2ccc(cc2)C1.[Br-].[Br-] (stereo not given)    7
CC[N+]1(Cc2ccccc2[N+](=O)[O-])CCCCCn2c(C)cc(=O)n(c2=O)CCCCC[N+](CC)(Cc2ccccc2[N+](=O)[O-])CCCCCn2c(=O)cc(C)n(c2=O)CCCCC1 (stereo not given)    130
CC[N+]1(Cc2ccccc2[N+](=O)[O-])CCCCCC[N+](CC)(Cc2ccccc2[N+](=O)[O-])CCCCCn2c(=O)cc(C)n(c2=O)CCCCC1 (stereo not given)    59

Please give the measured IC50 for this molecule: CC[N+]1(Cc2ccccc2[N+](=O)[O-])CCCCCn2c(C)c3c(=O)n(c2=O)CCCCC[N+](CC)(Cc2ccccc2[N+](=O)[O-])CCCCCn2c(C)c(c(=O)n(c2=O)CCCCC1)C3 (stereo not given)
4000

###

Target: Cholinesterase (Homo sapiens, UniProt P06276)
Sequence (P06276 whole entry): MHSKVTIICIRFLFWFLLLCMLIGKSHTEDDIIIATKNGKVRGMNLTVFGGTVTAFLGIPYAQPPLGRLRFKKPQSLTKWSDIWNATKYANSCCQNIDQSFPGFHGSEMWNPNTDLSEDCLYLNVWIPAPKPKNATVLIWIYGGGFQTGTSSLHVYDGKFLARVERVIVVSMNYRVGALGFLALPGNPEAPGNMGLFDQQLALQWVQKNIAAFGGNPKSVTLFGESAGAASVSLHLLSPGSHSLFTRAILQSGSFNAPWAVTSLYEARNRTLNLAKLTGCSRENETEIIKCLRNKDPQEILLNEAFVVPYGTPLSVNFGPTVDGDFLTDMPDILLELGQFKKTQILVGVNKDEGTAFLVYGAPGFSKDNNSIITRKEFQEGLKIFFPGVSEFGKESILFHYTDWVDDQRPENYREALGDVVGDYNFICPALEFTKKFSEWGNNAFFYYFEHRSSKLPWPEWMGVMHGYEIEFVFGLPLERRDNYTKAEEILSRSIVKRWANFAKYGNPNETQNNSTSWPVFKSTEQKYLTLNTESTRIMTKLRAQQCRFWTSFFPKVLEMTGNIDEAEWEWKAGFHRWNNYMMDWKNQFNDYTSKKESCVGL
Assay: Inhibition of BChE from human plasma
recorded_endpoint: IC50 (µM)
One number for each entry, in µM.

CC[N+]1(Cc2ccccc2[N+](=O)[O-])CCCCCC[N+](CC)(Cc2ccccc2[N+](=O)[O-])CCCCCn2c(=O)cc(C)n(c2=O)CCCCC1 (stereo not given)    9.2
CC[N+](CC)(CCCCCn1c(C)cc(=O)n(CCCCC[N+](CC)(CC)Cc2ccccc2[N+](=O)[O-])c1=O)Cc1ccccc1[N+](=O)[O-].[Br-].[Br-]    10

For each of the molecules below, note its IC50.
1. CC[N+]1(Cc2ccccc2[N+](=O)[O-])CCCCCn2c(C)c3c(=O)n(c2=O)CCCCC[N+](CC)(Cc2ccccc2[N+](=O)[O-])CCCCCn2c(C)c(c(=O)n(c2=O)CCCCC1)C3 (stereo not given)
2. CC[N+]1(Cc2ccccc2[N+](=O)[O-])CCCCCn2c(C)cc(=O)n(c2=O)CCCCC[N+](CC)(Cc2ccccc2[N+](=O)[O-])Cc2ccc(cc2)C1.[Br-].[Br-] (stereo not given)

1. 20
2. 1.2

Tell me the measured IC50 of CC[N+]1(Cc2ccccc2[N+](=O)[O-])CCCCCn2c(C)cc(=O)n(c2=O)CCCCC[N+](CC)(Cc2ccccc2[N+](=O)[O-])CCCCCn2c(=O)cc(C)n(c2=O)CCCCC1 (stereo not given) , please.
10

###

Exercise: for every item that follows, state its recorded LD50.
Assay: Toxicity in ip dosed rat
Type: organism-based
Conditions: in vivo
Answers are plain numbers, in mg/kg.

Consider the reported LD50 for these compounds:
CC[N+]1(Cc2ccccc2[N+](=O)[O-])CCCCCn2c(C)cc(=O)n(c2=O)CCCCC[N+](CC)(Cc2ccccc2[N+](=O)[O-])Cc2ccc(cc2)C1.[Br-].[Br-] (stereo not drawn)    15.5
CC[N+](CC)(CCCCCn1c(C)cc(=O)n(CCCCC[N+](CC)(CC)Cc2ccccc2[N+](=O)[O-])c1=O)Cc1ccccc1[N+](=O)[O-].[Br-].[Br-]    0.008

Attention now turns to another entry.
Can you look up the measured LD50 of CN(C)C(=O)Oc1ccc[n+](C)c1.[Br-] [PYRIDOSTIGMINE BROMIDE] for me?
2.7
